B1: HDV Ribozyme (parent)
chain: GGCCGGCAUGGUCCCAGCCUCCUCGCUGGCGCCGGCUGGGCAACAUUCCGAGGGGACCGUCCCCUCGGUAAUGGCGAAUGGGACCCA

Variants of: B1
Assay: self-cleavage, relative activity (ratio to wild type); higher = more cleavage; co-transcriptional
recordedEndpoint: self-cleavage
Form: value (number only, do not type unit).

Query: Which self-cleavage is listed for G2C G50U ?
Reply: 0.0594

Query: Which self-cleavage is listed for G31U A42G ?
Reply: 0.0923

Query: Which self-cleavage is listed for C7G U20A ?
Reply: 0

Query: Which self-cleavage is listed for C36U C64G ?
Reply: 0.606

Query: Which self-cleavage is listed for C18A G67U ?
Reply: 0.117

Query: Which self-cleavage is listed for C3G C7G ?
Reply: 0.0244

Query: Which self-cleavage is listed for C13A C33G ?
Reply: 0.175

Query: Which self-cleavage is listed for G40C C57G ?
Reply: 0.36

Query: Which self-cleavage is listed for G53C G80A ?
Reply: 0.307

Query: Which self-cleavage is listed for C4U A16U ?
Reply: 0.462

Query: Which self-cleavage is listed for U72G G81C ?
Reply: 0.0791

Query: Which self-cleavage is listed for C33A U60C ?
Reply: 0.415

Query: Which self-cleavage is listed for C19A G80C ?
Reply: 0.0665

Query: Which self-cleavage is listed for G40C G67U ?
Reply: 0.323

Query: Which self-cleavage is listed for G55C C64A ?
Reply: 0.855

Query: Which self-cleavage is listed for C15U G76U ?
Reply: 1.2

Query: Which self-cleavage is listed for C14A C66G ?
Reply: 0.57

Query: Which self-cleavage is listed for A16G C41U ?
Reply: 1.22

Query: Which self-cleavage is listed for G25U C85G ?
Reply: 0.0755

Query: Which self-cleavage is listed for C14A C63G ?
Reply: 0.935

Query: Which self-cleavage is listed for U23C U60G ?
Reply: 0.798

Query: Which self-cleavage is listed for G2A A56U ?
Reply: 0.115

The values you see were collected from the RNAGym collection of RNA variant scans (doi:10.7554/elife.80360).
